Hey, just so you know, these numbers are from patent US11667643B2.

target system: RIPK1 (Homo sapiens (Human), UniProt Q13546)
Sequence (Q13546 whole entry, species assumed): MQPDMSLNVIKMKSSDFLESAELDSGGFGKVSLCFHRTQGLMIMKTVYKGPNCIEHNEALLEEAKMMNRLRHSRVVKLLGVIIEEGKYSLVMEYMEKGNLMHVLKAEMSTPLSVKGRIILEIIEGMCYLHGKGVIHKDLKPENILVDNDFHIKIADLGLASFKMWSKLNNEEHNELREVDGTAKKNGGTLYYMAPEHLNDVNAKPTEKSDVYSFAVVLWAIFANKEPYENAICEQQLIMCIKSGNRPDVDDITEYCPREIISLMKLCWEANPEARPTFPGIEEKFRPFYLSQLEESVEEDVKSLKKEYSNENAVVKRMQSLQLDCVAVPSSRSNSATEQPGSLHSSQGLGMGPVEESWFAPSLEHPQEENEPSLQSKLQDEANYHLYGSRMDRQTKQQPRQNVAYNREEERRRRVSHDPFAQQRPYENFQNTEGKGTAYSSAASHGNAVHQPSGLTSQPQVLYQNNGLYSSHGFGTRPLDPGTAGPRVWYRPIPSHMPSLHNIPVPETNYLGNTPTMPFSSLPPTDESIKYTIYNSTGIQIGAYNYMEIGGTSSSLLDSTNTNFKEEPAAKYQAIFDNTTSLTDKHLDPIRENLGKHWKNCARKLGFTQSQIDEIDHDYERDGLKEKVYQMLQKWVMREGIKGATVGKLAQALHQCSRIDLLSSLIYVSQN
protocol description: biochemical
Assay type: biochemical
measured property: IC50 (nM)

O=C(NC1CCc2ccc(N3CCC4(CCOCC4)CC3)cc2-n2ccnc21)c1n[nH]c(Cc2ccccc2)n1 (racemic) [Compound I-64]
124
O=C(NC1CCc2ccc(N3CC4(CCOCC4)C3)cc2-n2ccnc21)c1n[nH]c(Cc2ccccc2)n1 (racemic) [Compound I-84]
119
O=C(N[C@H]1COc2ccc(N3CC4(CCOCC4)C3)cc2-n2ccnc21)c1n[nH]c(Cc2ccccc2)n1 [Compound I-87]
68.2
O=C(NC1CSc2cccn2-n2ccnc21)c1ncn(Cc2c(Cl)cccc2Cl)n1 (racemic) [Compound I-29]
9.8

###

Collected IC50 values appear next to each entry.
target system: RIPK1 (Homo sapiens (Human), UniProt Q13546)
protocol description: biochemical
Format: biochemical
settings: RIPK1 enzyme 31 ng/well, 30° C. for 30 minutes, luminescence; read-out: RIPK1 ADP-Glo Kinase (IC50)
measured property: IC50

O=C(NC1CCc2ccccc2-n2c(Cl)cnc21)c1ncn(Cc2c(Cl)cccc2Cl)n1 (racemic) [Compound I-74]
54 nM
O=C(NC1CCc2ccccc2-n2c1nc(Cl)c2Cl)c1ncn(Cc2c(Cl)cccc2Cl)n1 (racemic) [Compound I-73]
92.4 nM
O=C(NC1CCc2ccc(N3CCC4(CCOCC4)CC3)cc2-n2c1noc2=O)c1n[nH]c(Cc2ccccc2)n1 (racemic) [Compound I-65]
67.8 nM
O=C(N[C@H]1C[S+]([O-])c2ccccc2-n2nnnc21)c1cc(Cc2ccccc2)on1 (stereo partly shown) [Compound I-26]
1370 nM
O=C(N[C@H]1COc2ccccc2-n2c1noc2=O)c1cc(O)n(Cc2ccccc2)n1 [Compound I-75]
10600 nM
CC(C)(O)C#Cc1ccc2c(c1)-n1ccnc1C(NC(=O)n1cc(Cc3ccc(F)cc3)cn1)CC2 (racemic) [Compound I-93]
40.4 nM
O=C(N[C@H]1COc2ccccc2-n2c1noc2=O)c1n[nH]c(Cc2ccc(F)cc2F)n1 [Compound I-49]
347 nM
